Test system: B16F0 murine melanoma cell line
MEASUREMENT_NOTES: cells
Assay type: cell-based
ASSAY_CONTEXT: 10 µM, B16F0, 48 h
Where a SMILES comes first, the peptide text is derived from it.
ASSAY_ENDPOINT: % Of melanogenesis inhibition at a specific inhibitor concentration (%)
Numbers only, in %.

Consider the worked cases shown below.
C/C(=N\NC(N)=S)c1ccc(C(=O)N[C@@H](Cc2ccccc2)C(=O)N[C@@H](Cc2c[nH]c3ccccc23)C(=O)N[C@@H](Cc2ccc(O)cc2)C(=O)O)cc1 [Compound 15, TSC3-FWY-OH] : 5
CC(=O)N[C@@H](Cc1ccccc1)C(=O)N[C@@H](Cc1c[nH]c2ccccc12)C(=O)N[C@@H](Cc1ccc(O)cc1)C(=O)O [Compound 6, Ac-FWY-OH] (Ac-Phe-Trp-Tyr-OH) : 0
NC(=S)N/N=C/c1ccc(C(=O)N[C@@H](Cc2ccccc2)C(=O)N[C@@H](Cc2ccc(O)cc2)C(=O)N[C@@H](Cc2ccc(O)cc2)C(=O)O)cc1 [Compound 8, TSC1-FYY-OH] : 3
CC(=O)N[C@@H](Cc1ccccc1)C(=O)N[C@@H](Cc1ccc(O)cc1)C(=O)N[C@@H](Cc1ccc(O)cc1)C(=O)O [Compound 5, Ac-FYY-OH] (Ac-Phe-Tyr-Tyr-OH) : 0

Could you now consider this next compound?
[ask] Recall the recorded % Of melanogenesis inhibition at a specific inhibitor concentration for CC(=O)N[C@@H](Cc1ccccc1)C(=O)N[C@@H](Cc1ccccc1)C(=O)N[C@@H](Cc1ccc(O)cc1)C(=O)O [Compound 4, Ac-FFY-OH] (Ac-Phe-Phe-Tyr-OH) with B16F0 murine melanoma cell line and state it.
[reply] 1

###

Record form. Attribute: pIC50. Fill in for each entry.
TESTED_TARGET: mushroom tyrosinase (Agaricus bisporus)
MEASUREMENT_NOTES: Tyrosinase inhibition assay (diphenolase activity, L-DOPA substrate)
Type: biochemical
ASSAY_CONTEXT: diphenolase activity, L-DOPA 5 mM, n = 3
One number for each entry, as −log10 of the molar value.

C/C(=N\NC(N)=S)c1ccc(C(=O)N[C@@H](Cc2ccccc2)C(=O)N[C@@H](Cc2ccc(O)cc2)C(=O)N[C@@H](Cc2ccc(O)cc2)C(=O)O)cc1 [Compound 14, TSC3-FYY-OH] : 4.58

[ask] Endpoint output: pIC50 of C/C(=N\NC(N)=S)c1ccc(C(=O)N[C@@H](Cc2ccccc2)C(=O)N[C@@H](Cc2c[nH]c3ccccc23)C(=O)N[C@@H](Cc2ccc(O)cc2)C(=O)O)cc1 [Compound 15, TSC3-FWY-OH] . Value?
[reply] 4.60

###

System: B16F0 murine melanoma cell line
MEASUREMENT_NOTES: cells
Assay type: cell-based
ASSAY_CONTEXT: Mus musculus; B16F0, MTT, 48 h, n = 3; read-out: IC50 of cell proliferation
Record form. Attribute: IC50. Fill in for each entry.
Give bare numbers, in µM.

CC(C(=O)O)c1cccc(/C(=N\NC(N)=S)c2ccccc2)c1 (centres unmarked) [Compound 2, thiosemicarbazone of ketoprofen] : 71.5

Could you now consider this next compound?
[ask] Endpoint output: IC50 of O=c1cc(CO)occ1O [Kojic acid, reference compound] . Value?
[reply] 162

###

Tested on: B16F0 murine melanoma cell line
MEASUREMENT_NOTES: cells
Format: cell-based
ASSAY_CONTEXT: 24 h
ASSAY_ENDPOINT: pIC50
Answers are plain numbers, as −log10 of the molar value.

CC(C(=O)N[C@@H](Cc1ccccc1)C(=O)N[C@@H](Cc1c[nH]c2ccccc12)C(=O)N[C@@H](Cc1ccc(O)cc1)C(=O)O)c1cccc(C(=NNC(N)=S)c2ccccc2)c1 (mixture of isomers) : 4.05

Please give pIC50 for each item listed below.
1. C/C(=N\NC(N)=S)c1ccc(C(=O)N[C@@H](Cc2ccccc2)C(=O)N[C@@H](Cc2ccc(O)cc2)C(=O)N[C@@H](Cc2ccc(O)cc2)C(=O)O)cc1
2. NC(=S)N/N=C/c1ccc(C(=O)N[C@@H](Cc2ccccc2)C(=O)N[C@@H](Cc2ccccc2)C(=O)N[C@@H](Cc2ccc(O)cc2)C(=O)O)cc1
3. NC(=S)N/N=C/c1ccc(C(=O)N[C@@H](Cc2ccccc2)C(=O)N[C@@H](Cc2ccc(O)cc2)C(=O)N[C@@H](Cc2ccc(O)cc2)C(=O)O)cc1
4. NC(=S)N/N=C/c1ccc(C(=O)N[C@@H](Cc2ccccc2)C(=O)N[C@@H](Cc2c[nH]c3ccccc23)C(=O)N[C@@H](Cc2ccc(O)cc2)C(=O)O)cc1

[reply]
[3.84, 3.86, 3.80, 3.82]

[ask] Recall the recorded pIC50 for C/C(=N\NC(N)=S)c1ccc(C(=O)N[C@@H](Cc2ccccc2)C(=O)N[C@@H](Cc2c[nH]c3ccccc23)C(=O)N[C@@H](Cc2ccc(O)cc2)C(=O)O)cc1 with B16F0 murine melanoma cell line and state it.
[reply] 4.17

###

TESTED_TARGET: mushroom tyrosinase (Agaricus bisporus, UniProt C7FF04)
Sequence (C7FF04 1-392): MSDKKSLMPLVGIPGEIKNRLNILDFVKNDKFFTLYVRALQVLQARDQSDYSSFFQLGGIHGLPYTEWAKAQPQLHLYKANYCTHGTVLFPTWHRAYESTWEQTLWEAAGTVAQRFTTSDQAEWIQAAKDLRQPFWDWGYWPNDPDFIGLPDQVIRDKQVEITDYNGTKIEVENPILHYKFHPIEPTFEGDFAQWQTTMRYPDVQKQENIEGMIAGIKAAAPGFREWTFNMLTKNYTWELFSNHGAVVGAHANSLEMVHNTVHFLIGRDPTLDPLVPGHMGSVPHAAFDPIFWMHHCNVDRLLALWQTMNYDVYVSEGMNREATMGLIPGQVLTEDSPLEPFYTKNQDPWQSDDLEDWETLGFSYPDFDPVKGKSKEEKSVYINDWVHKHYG
MEASUREMENT_NOTES: Tyrosinase inhibition assay (diphenolase activity, L-DOPA substrate)
Assay type: biochemical
ASSAY_CONTEXT: diphenolase activity, L-DOPA 5 mM, n = 3
Record form. Attribute: IC50. Fill in for each entry.

Consider the worked cases shown below.
CC(C(=O)O)c1cccc(/C(=N\NC(N)=S)c2ccccc2)c1 (stereo not drawn) : > 150 µM
NC(=S)N/N=C/c1ccc(C(=O)N[C@@H](Cc2ccccc2)C(=O)N[C@@H](Cc2ccccc2)C(=O)N[C@@H](Cc2ccc(O)cc2)C(=O)O)cc1 : > 150 µM

Could you now consider this next compound?
[ask] Endpoint output: IC50 of C/C(=N\NC(N)=S)c1ccc(C(=O)N[C@@H](Cc2ccccc2)C(=O)N[C@@H](Cc2ccccc2)C(=O)N[C@@H](Cc2ccc(O)cc2)C(=O)O)cc1 . Value?
[reply] > 150 µM
